molecular target: human recombinant GIP receptor (Homo sapiens); construct: expressed in transfected cells; host or cells: CHO-K1 clonal cells (membrane preparation); test: In vitro hGIP receptor binding assay
Sequence (P48546 22-466): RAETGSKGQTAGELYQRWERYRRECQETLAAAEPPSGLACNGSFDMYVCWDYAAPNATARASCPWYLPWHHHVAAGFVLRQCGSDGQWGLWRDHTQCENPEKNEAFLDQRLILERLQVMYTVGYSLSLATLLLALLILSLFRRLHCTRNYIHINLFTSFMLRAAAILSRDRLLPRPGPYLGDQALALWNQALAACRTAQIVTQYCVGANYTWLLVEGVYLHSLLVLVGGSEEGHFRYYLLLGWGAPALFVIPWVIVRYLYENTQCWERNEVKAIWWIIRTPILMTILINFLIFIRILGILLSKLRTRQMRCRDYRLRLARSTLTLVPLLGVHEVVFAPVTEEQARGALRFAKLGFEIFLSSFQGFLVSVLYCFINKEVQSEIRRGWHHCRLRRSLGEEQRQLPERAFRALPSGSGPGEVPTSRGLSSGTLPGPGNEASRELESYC
Where no end group is shown, it is not given here. [ ]: non-standard residue; d: D form. The star is where a group is joined. Tyr(3-Cl) = N[C@@H](Cc1ccc(O)c(Cl)c1)C(=O)O; Tic(7-OH) = O=C(O)[C@@H]1Cc2ccc(O)cc2CN1; Phe(4-Me) = Cc1ccc(C[C@H](N)C(=O)O)cc1; Desaminotyrosyl = O=C(CCc1ccc(O)cc1)*; Hyp = O=C(O)[C@@H]1C[C@@H](O)CN1; Pip = O=C(O)[C@@H]1CCCCN1; Ac6c = NC1(C(=O)O)CCCCC1; Nle = CCCC[C@H](N)C(=O)O; Ac5c = NC1(C(=O)O)CCCC1; Aib = CC(C)(N)C(=O)O
fulfilled if Ki is below 5 nM. not fulfilled if not; exact matches included in not fulfilled.

>  <substance>
Desaminotyrosyl-A[Pip]GTF[Ac6c]SDYSIAMDKIHQQDFVNWLLAQKGKKNDWKHNITQ [Example 8, (4Hppa^1, hPro^3, A6c^7)hGIP(1-42)-OH]

>  <assayed.system>
human recombinant GIP receptor (Homo sapiens)

>  <cat>
not fulfilled

$$$$
>  <substance>
Desaminotyrosyl-A[Hyp]GTF[Ac6c]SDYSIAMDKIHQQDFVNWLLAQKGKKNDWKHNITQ [Example 7, (4Hppa^1, 4Hyp^3, A6c^7)hGIP(1-42)-OH]

>  <assayed.system>
human recombinant GIP receptor (Homo sapiens)

>  <cat>
not fulfilled

$$$$
>  <substance>
[Phe(4-Me)][Aib]EGTFISDY[Ac5c]IAMDKIHQQDFVNWLLAQKGKKNDWKHNITQH-OH [Example 78]

>  <assayed.system>
human recombinant GIP receptor (Homo sapiens)

>  <cat>
not fulfilled

$$$$
>  <substance>
[Tic(7-OH)][Aib]EGTFISDY[Ac5c]IAMDKIHQQDFVNWLLAQKGKKNDWKHNITQH-OH [Example 77]

>  <assayed.system>
human recombinant GIP receptor (Homo sapiens)

>  <cat>
fulfilled

$$$$
>  <substance>
H-[Tyr(3-Cl)][Aib]EGTFISDY[Ac5c]IA[Nle]DKIHQQDFVNWLLAQKGKKNDWKHNITQ-OH [Example 14]

>  <assayed.system>
human recombinant GIP receptor (Homo sapiens)

>  <cat>
fulfilled

$$$$

###

assay: Rat plasma half-life assay; assay type: in vitro ADME; conditions: 37° C., LC-MS, read-out: Rat Plasma T½ (converted)
Where no end group is shown, it is not given here. [ ]: non-standard residue; d: D form. The star is where a group is joined. Tyr(3-Cl) = N[C@@H](Cc1ccc(O)c(Cl)c1)C(=O)O; Phe(4-CN) = N#Cc1ccc(C[C@H](N)C(=O)O)cc1; Phe(4-Me) = Cc1ccc(C[C@H](N)C(=O)O)cc1; Desaminotyrosyl = O=C(CCc1ccc(O)cc1)*; Hyp = O=C(O)[C@@H]1C[C@@H](O)CN1; Pip = O=C(O)[C@@H]1CCCCN1; Ac6c = NC1(C(=O)O)CCCCC1; Nle = CCCC[C@H](N)C(=O)O; Ac5c = NC1(C(=O)O)CCCC1; Aib = CC(C)(N)C(=O)O

>  <substance>
Desaminotyrosyl-A[Pip]GTF[Ac6c]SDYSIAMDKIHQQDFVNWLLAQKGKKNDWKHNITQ [Example 8, (4Hppa^1, hPro^3, A6c^7)hGIP(1-42)-OH]

>  <value.units>
h

>  <relation.symbol>
=

>  <half-life at 0.1 mg/ml>
12.9

$$$$
>  <substance>
[Phe(4-CN)][Aib]EGTFISDY[Ac5c]IAMDKIHQQDFVNWLLAQKGKKNDWKHNITQH-OH [Example 79]

>  <value.units>
h

>  <relation.symbol>
=

>  <half-life at 0.1 mg/ml>
21.7

$$$$
>  <substance>
Desaminotyrosyl-A[Hyp]GTF[Ac6c]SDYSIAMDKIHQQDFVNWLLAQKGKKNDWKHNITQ [Example 7, (4Hppa^1, 4Hyp^3, A6c^7)hGIP(1-42)-OH]

>  <value.units>
h

>  <relation.symbol>
=

>  <half-life at 0.1 mg/ml>
6.8

$$$$
>  <substance>
[Phe(4-Me)][Aib]EGTFISDY[Ac5c]IAMDKIHQQDFVNWLLAQKGKKNDWKHNITQH-OH [Example 78]

>  <value.units>
h

>  <relation.symbol>
>

>  <half-life at 0.1 mg/ml>
52

$$$$
>  <substance>
H-[Tyr(3-Cl)][Aib]EGTFISDY[Ac5c]IA[Nle]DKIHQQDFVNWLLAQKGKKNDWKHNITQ-OH [Example 14]

>  <value.units>
h

>  <relation.symbol>
=

>  <half-life at 0.1 mg/ml>
27.4

$$$$

###

Experiment: Rat plasma half-life assay
Type: in vitro ADME
Details: 37° C., LC-MS, read-out: Rat Plasma T½ (converted)
Method: B. Human and Rat Plasma Half-Life Assay 50 μl was removed at various times, like at 0, 1, 2, 3, 4, 8, 24, 32, 48, 56, 72 hours, mixed with 5 μl formic acid and 150 μL acetonitrile in a microcentrifuge tube, vertexed, and centrifuged for 10 minutes at 10 K rpm. The supernatant was transferred to an injection vial and analyzed by LC-MS. The LC-MS system consisted of an API4000 mass spectrometer with an ESI probe. Positive ion mode and full scan detection were used. […]
Where no end group is shown, it is not given here. [ ]: non-standard residue; d: D form. Tyr(3-OMe) = COc1cc(C[C@H](N)C(=O)O)ccc1O; Ac5c = NC1(C(=O)O)CCCC1; Aib = CC(C)(N)C(=O)O
experimental.endpoint: half-life (h)

>  <substance>
[Tyr(3-OMe)][Aib]EGTFISDY[Ac5c]IA[Ac5c]DKIHQQDFVNWLLAQKGKKNDWKHNI[Ac5c]QH-OH [Example 75]

>  <value.units>
h

>  <recorded.number>
18.6

$$$$

###

test: Human plasma half-life assay; type: in vitro ADME; conditions: 37° C., LC-MS, read-out: Human Plasma T½ (converted)
Where no end group is shown, it is not given here. [ ]: non-standard residue; d: D form. The star is where a group is joined. Tyr(3-Cl) = N[C@@H](Cc1ccc(O)c(Cl)c1)C(=O)O; Phe(4-CN) = N#Cc1ccc(C[C@H](N)C(=O)O)cc1; Phe(4-Me) = Cc1ccc(C[C@H](N)C(=O)O)cc1; Desaminotyrosyl = O=C(CCc1ccc(O)cc1)*; Hyp = O=C(O)[C@@H]1C[C@@H](O)CN1; Pip = O=C(O)[C@@H]1CCCCN1; Ac6c = NC1(C(=O)O)CCCCC1; Nle = CCCC[C@H](N)C(=O)O; Ac5c = NC1(C(=O)O)CCCC1; Aib = CC(C)(N)C(=O)O
The following substances are shown together with reported half-life at 0.1 mg/ml values.

>  <substance>
[Phe(4-CN)][Aib]EGTFISDY[Ac5c]IAMDKIHQQDFVNWLLAQKGKKNDWKHNITQH-OH [Example 79]

>  <half-life at 0.1 mg/ml>
26.3 h

$$$$
>  <substance>
Desaminotyrosyl-A[Hyp]GTF[Ac6c]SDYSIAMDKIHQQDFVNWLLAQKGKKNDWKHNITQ [Example 7, (4Hppa^1, 4Hyp^3, A6c^7)hGIP(1-42)-OH]

>  <half-life at 0.1 mg/ml>
38.5 h

$$$$
>  <substance>
H-[Tyr(3-Cl)][Aib]EGTFISDY[Ac5c]IA[Nle]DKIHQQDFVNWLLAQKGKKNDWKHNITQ-OH [Example 14]

>  <half-life at 0.1 mg/ml>
52.1 h

$$$$
>  <substance>
[Phe(4-Me)][Aib]EGTFISDY[Ac5c]IAMDKIHQQDFVNWLLAQKGKKNDWKHNITQH-OH [Example 78]

>  <half-life at 0.1 mg/ml>
14.9 h

$$$$
>  <substance>
Desaminotyrosyl-A[Pip]GTF[Ac6c]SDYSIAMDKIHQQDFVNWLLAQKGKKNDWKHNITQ [Example 8, (4Hppa^1, hPro^3, A6c^7)hGIP(1-42)-OH]

>  <half-life at 0.1 mg/ml>
> 53 h

$$$$
